# assay.system: human GLP-1R (Homo sapiens, UniProt P43220, C347A)
# Construct: gene GLP1R; full-length receptor expressed in HEK293 cells; C347A mutant carries a 1xFLAG tag
# Sequence (P43220 24-463 C347A): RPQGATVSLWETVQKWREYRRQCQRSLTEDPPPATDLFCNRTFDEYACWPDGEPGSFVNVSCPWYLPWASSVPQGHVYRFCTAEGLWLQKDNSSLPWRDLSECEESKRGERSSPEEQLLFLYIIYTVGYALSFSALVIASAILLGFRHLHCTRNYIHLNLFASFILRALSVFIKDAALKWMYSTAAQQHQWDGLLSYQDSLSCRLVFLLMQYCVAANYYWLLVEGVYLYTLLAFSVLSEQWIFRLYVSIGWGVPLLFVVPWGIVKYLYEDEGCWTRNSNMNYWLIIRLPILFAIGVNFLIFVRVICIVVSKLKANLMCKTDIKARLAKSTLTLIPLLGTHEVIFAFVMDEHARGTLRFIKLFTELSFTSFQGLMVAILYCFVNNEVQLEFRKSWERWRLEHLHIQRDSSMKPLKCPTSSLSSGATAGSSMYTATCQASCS
# protocol.details: HTRF cAMP accumulation, HEK293 cells
# Type: cell-based
# experimental.setup: read-out: EC50, C347A (nM) (S.D., n)
measurement.type: EC50

Consider the reported EC50 for these compounds:
1. FC(F)(F)c1nc2cc(Cl)c(Cl)cc2nc1Cl [compound 3] | > 30000 nM
2. Cc1ccc(-c2cccc(C(=O)NC(Cc3ccc(-c4noc(-c5ccc(NC(=O)OC(C)(C)C)cc5)n4)c(F)c3)C(=O)O)c2)cc1 (centres unmarked) [compound 9] | 1400 nM
3. CC1(C)CC(=O)c2c(S(C)(=O)=O)sc(-c3nnc(-c4ccc(C(C)(C)C)cc4)o3)c2C1 [compound 5] | > 30000 nM

Input line: EC50 for Cc1nnc(Sc2nc3cc(Cl)c(Cl)cc3nc2C(F)(F)F)s1 [compound 1] ?
Output line: > 30000 nM

Input line: Please answer likewise for CC[S+]([O-])c1nc(-c2cccc(OCc3ccccc3)c2)cc(C(F)(F)F)n1 (centres unmarked) [BETP]
Output line: > 30000 nM

###

# assay.system: human GLP-1R (Homo sapiens)
# Construct: gene GLP1R; full-length receptor expressed in HEK293 cells; C347A mutant carries a 1xFLAG tag
# protocol.details: HTRF cAMP accumulation, HEK293 cells
# Format: cell-based
# experimental.setup: read-out: Compound, EC50 WT (nM) (S.D., n)
# Source text: HTRF cAMP accumulation, HEK293 cells on human GLP-1R
Each record here notes measured EC50.

Consider the reported EC50 for these molecules:
1. CCSc1nc(-c2cccc(OCc3ccccc3)c2)cc(C(F)(F)F)n1 | > 30000 nM
2. O=C(Oc1cccc(-c2cn3cc(C(F)(F)F)cc(Cl)c3n2)c1)C1CCCCC1 | > 30000 nM

From here, focus on the item given below.
Input line: EC50 for FC(F)(F)c1nc2ccccc2nc1Sc1ccc(Cl)cc1 ?
Output line: > 30000 nM
